B1: NEK8 (parent)
chain: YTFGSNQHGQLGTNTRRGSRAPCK

variants of: B1; experiment: protein stability index of a GFP-peptide fusion (GPS, HEK-293T) (PSI 1-6); higher = more stable; conditions: c terminus: a fixed tail appended;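 note: lentivirally expressed fusions sorted by FACS into six bins by GFP to DsRed ratio, PSI derived from sequencing read proportions per bin multiplied by bin number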
Please enter satisfied where protein stability index is greater than or equal to 4, and not satisfied where it is lower.

### Prompt API: above_or_equal(metric=protein stability index, cutoff=4) for item R17I
### Response not satisfied

### Prompt API: above_or_equal(metric=protein stability index, cutoff=4) for item L11Q
### Response satisfied

### Prompt API: above_or_equal(metric=protein stability index, cutoff=4) for item R16K
### Response not satisfied

### Prompt API: above_or_equal(metric=protein stability index, cutoff=4) for item Q7L
### Response not satisfied

### Prompt API: above_or_equal(metric=protein stability index, cutoff=4) for item L11A
### Response satisfied

### Prompt API: above_or_equal(metric=protein stability index, cutoff=4) for item T15N
### Response not satisfied

### Prompt API: above_or_equal(metric=protein stability index, cutoff=4) for item N6I
### Response not satisfied

### Prompt API: above_or_equal(metric=protein stability index, cutoff=4) for item G4R
### Response satisfied

### Prompt API: above_or_equal(metric=protein stability index, cutoff=4) for item K24V
### Response not satisfied
